- assayed.system: D(2) dopamine receptor (Bos taurus) (UniProt P20288)
- Sequence (P20288 whole entry): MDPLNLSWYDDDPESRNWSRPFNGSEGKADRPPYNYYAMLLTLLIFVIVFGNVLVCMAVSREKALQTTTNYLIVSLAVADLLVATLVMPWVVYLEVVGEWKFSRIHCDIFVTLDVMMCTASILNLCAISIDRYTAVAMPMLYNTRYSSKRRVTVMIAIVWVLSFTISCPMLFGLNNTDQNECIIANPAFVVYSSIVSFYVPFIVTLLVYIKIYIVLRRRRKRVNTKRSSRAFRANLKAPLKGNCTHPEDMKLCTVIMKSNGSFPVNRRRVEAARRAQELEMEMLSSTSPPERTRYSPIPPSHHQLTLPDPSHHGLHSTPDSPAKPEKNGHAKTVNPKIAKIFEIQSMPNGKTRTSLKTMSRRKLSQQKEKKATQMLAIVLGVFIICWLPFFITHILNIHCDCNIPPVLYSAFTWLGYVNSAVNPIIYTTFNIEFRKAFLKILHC
- protocol.description: Ability to inhibit specific [3H]spiroperidol binding to bovine anterior pituitary homogenate, at 10 uM
# Lookup of reported Displacement keyed by entry
// note: answer is a bare numeric in %

Field: example entries. Status: answers known.
Given CCCN(CCC)CCc1ccc(O)c2c1CCC(=O)N2 , report its Displacement on D(2) dopamine receptor (Bos taurus) (UniProt P20288). 40

Lab note: D(2) dopamine receptor (Bos taurus) (UniProt P20288) assay, enter Displacement for CCCN(CCC)CCc1ccc(O)c2[nH]c(=O)ccc12 here 19

Print D(2) dopamine receptor (Bos taurus) (UniProt P20288) Displacement for NCCc1cccc2nc(O)ccc12 . 21

Write down the reported Displacement (system: D(2) dopamine receptor (Bos taurus) (UniProt P20288)) of COc1ccc(CCN)c2ccc(O)nc12 9

Print D(2) dopamine receptor (Bos taurus) (UniProt P20288) Displacement for COc1ccc(CCNCCc2ccccc2)c2ccc(O)nc12 . 9

Others:
Provide Displacement, tested on D(2) dopamine receptor (Bos taurus) (UniProt P20288), for CCCN(CCc1ccccc1)CCc1ccc(O)c2nc(O)ccc12 . 72

Write down the reported Displacement (system: D(2) dopamine receptor (Bos taurus) (UniProt P20288)) of CCCN(CCC)CCc1cccc2nc(O)ccc12 30

State Displacement on D(2) dopamine receptor (Bos taurus) (UniProt P20288). Entry: Oc1ccc(CCNCCc2ccc(O)c3nc(O)ccc23)cc1 42

Report value only: Displacement, D(2) dopamine receptor (Bos taurus) (UniProt P20288), CCCN(CCC)CCc1ccc(OC)c2nc(O)ccc12 6

Give measured Displacement for NCCc1ccc(O)c2nc(O)ccc12 (D(2) dopamine receptor (Bos taurus) (UniProt P20288)). 56

# lookup: D(2) dopamine receptor (Bos taurus) (UniProt P20288) Displacement, key = CCCN(CCc1ccc(O)cc1)CCc1ccc(O)c2nc(O)ccc12 78
